Target: UniProt:P00918
Experiment: Inhibition of human recombinant carbonic anhydrase-2 pre-incubated for 15 mins by stopped-flow CO2 hydration assay
pKi: −log10 of the molar value.
endpoint: pKi

(I) NS(=O)(=O)Oc1ccc(NC(=O)N2CCN(Cc3ccccc3)CC2)cc1
(II) NS(=O)(=O)Oc1ccc(NC(=O)N2CCN(c3ccccc3)CC2)cc1
Dear colleague, could you let me know whether I or II has the lower recorded pKi? Thanks. Mark your answer with the label of the selected entry.
II

====

Target: UniProtKB O43570
Sequence (O43570 whole entry): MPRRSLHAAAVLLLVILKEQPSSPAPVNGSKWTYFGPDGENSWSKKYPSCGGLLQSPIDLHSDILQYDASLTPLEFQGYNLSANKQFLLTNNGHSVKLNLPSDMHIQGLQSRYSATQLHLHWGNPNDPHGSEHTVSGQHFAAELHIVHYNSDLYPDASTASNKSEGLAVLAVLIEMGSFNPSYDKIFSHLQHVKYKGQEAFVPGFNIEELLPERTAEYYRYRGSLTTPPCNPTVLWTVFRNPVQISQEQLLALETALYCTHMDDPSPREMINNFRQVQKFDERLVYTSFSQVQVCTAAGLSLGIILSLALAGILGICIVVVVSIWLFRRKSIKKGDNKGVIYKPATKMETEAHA
Test: Inhibition of human recombinant carbonic anhydrase-12 pre-incubated for 15 mins by stopped-flow CO2 hydration assay
endpoint: Ki (nM)

{"sample smiles": "NS(=O)(=O)Oc1ccc(NC(=O)N2CCN(c3ccccc3)CC2)cc1", "Ki / nM": 1}
{"sample smiles": "NS(=O)(=O)Oc1ccc(NC(=O)N2CCN(Cc3ccccc3)CC2)cc1", "Ki / nM": 1}
{"sample smiles": "Cc1cccc(N2CCN(C(=O)Nc3ccc(OS(N)(=O)=O)cc3)CC2)c1C", "Ki / nM": 1}

(I) COc1ccc(N2CCN(C(=O)Nc3ccc(OS(N)(=O)=O)cc3)CC2)cc1
(II) COc1cccc(N2CCN(C(=O)Nc3ccc(OS(N)(=O)=O)cc3)CC2)c1
Lab note: check whether I or II shows the higher recorded Ki. // caller expects the label of the chosen entry
II
(II: 37 nM, I: 1.1 nM)

====

Target: Carbonic anhydrase 1 (Homo sapiens)
Sequence (P00915 whole entry): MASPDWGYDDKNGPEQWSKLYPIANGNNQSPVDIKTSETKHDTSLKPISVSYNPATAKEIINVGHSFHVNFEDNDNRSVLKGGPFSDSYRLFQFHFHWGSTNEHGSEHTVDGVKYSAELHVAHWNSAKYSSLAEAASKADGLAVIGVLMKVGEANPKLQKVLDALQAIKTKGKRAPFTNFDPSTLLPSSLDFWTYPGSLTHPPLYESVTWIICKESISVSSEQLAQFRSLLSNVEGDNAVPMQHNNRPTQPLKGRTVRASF
Assay: Inhibition of human recombinant carbonic anhydrase-1 pre-incubated for 15 mins by stopped-flow CO2 hydration assay
endpoint: Ki (nM)

Worked examples, 2 compounds total:
{"sample smiles": "COc1cccc(N2CCN(C(=O)Nc3ccc(OS(N)(=O)=O)cc3)CC2)c1", "measurement": 88.1}
{"sample smiles": "COc1ccc(N2CCN(C(=O)Nc3ccc(OS(N)(=O)=O)cc3)CC2)cc1", "measurement": 282}

(P) NS(=O)(=O)Oc1ccc(NC(=O)N2CCN(c3ccc(F)cc3)CC2)cc1
(Q) Cc1cccc(N2CCN(C(=O)Nc3ccc(OS(N)(=O)=O)cc3)CC2)c1
(R) NS(=O)(=O)Oc1ccc(NC(=O)N2CCN(c3ccc(Cl)cc3)CC2)cc1
Put the items in order so that reported Ki rises from first to last. Give me the labels in the order the question wants.
P, R, Q

(I) NS(=O)(=O)Oc1ccc(NC(=O)N2CCN(c3ccccc3)CC2)cc1
(II) Cc1cccc(N2CCN(C(=O)Nc3ccc(OS(N)(=O)=O)cc3)CC2)c1C
Given the listed records, identify the one among I and II with higher Ki. Your answer should be the label attached to the chosen record.
I

(a) NS(=O)(=O)Oc1ccc(NC(=O)N2CCN(c3nccc(-c4cc5ccccc5o4)n3)CC2)cc1
(b) NS(=O)(=O)Oc1ccc(NC(=O)N2CCN(Cc3ccccc3)CC2)cc1
Which record shows the lower Ki: the first, a , or the second, b ? When you have decided, please share the label of that item.
a

====

Target: UniProt Q16790
Assay: Inhibition of human recombinant carbonic anhydrase-9 pre-incubated for 15 mins by stopped-flow CO2 hydration assay
endpoint: Ki (nM)

Worked cases, answers included:
{"sample smiles": "Cc1cccc(N2CCN(C(=O)Nc3ccc(O)cc3)CC2)c1", "endpoint": "Ki", "measurement": 549}
{"sample smiles": "COc1ccc(N2CCN(C(=O)Nc3ccc(OS(N)(=O)=O)cc3)CC2)cc1", "endpoint": "Ki", "measurement": 114}
{"sample smiles": "NS(=O)(=O)Oc1ccc(NC(=O)N2CCN(c3ccc(Cl)cc3)CC2)cc1", "endpoint": "Ki", "measurement": 10.4}
{"sample smiles": "NS(=O)(=O)Oc1ccc(NC(=O)N2CCN(c3nccc(-c4ccc(C(F)(F)F)cc4)n3)CC2)cc1", "endpoint": "Ki", "measurement": 24.3}

(I) Cc1cccc(N2CCN(C(=O)Nc3ccc(OS(N)(=O)=O)cc3)CC2)c1C
(II) NS(=O)(=O)Oc1ccc(NC(=O)N2CCN(c3ccccc3)CC2)cc1
Lower value for measured Ki? Options: I , II Label of pick, please.
II
(II: 11.1 nM, I: 32.3 nM)
